Serine/threonine-protein kinase pim-1 (Homo sapiens) Ki, compiled from various sources.
Quick note: give the figure in nM, leave out the unit.

Fill in: Ki of `N[C@H]1CCCN(c2ccc(-c3n[nH]c4cnc(-c5cccnc5)cc34)cn2)C1` is ___
0.774

Fill in: Ki of `Cn1ncc(NC(=O)c2nc(-c3ccccc3F)ccc2N)c1OC1CCNCC1` is ___
4.36

Fill in: Ki of `c1ccc(-c2n[nH]c3cnc(-c4cnccn4)cc23)cc1` is ___
41.6

Fill in: Ki of `Cn1ncc(NC(=O)c2nc(-c3ccncc3F)sc2N)c1N1CC[C@H](N)[C@@H](F)CC1` is ___
0.38

Fill in: Ki of `Cn1ncc(NC(=O)c2nc(-c3c(F)cccc3F)sc2N)c1N1CC[C@@H]2NC(=O)O[C@@H]2CC1` is ___
0.353

Fill in: Ki of `CCn1cc(-c2cc3c(-c4cccc(N5CCNC[C@H](O)C5)n4)n[nH]c3cn2)cn1` is ___
0.039

Fill in: Ki of COC1CCN(c2c(NC(=O)c3nc(-c4ccccn4)sc3N)cnn2C)CCC1N (racemic) is ___
0.833

Fill in: Ki of `Cn1cc(-c2cc3c(-c4cccc(C5CCNCC5)n4)n[nH]c3cn2)cn1` is ___
0.224

Fill in: Ki of `Nc1sc(C2CCCC2)nc1C(=O)Nc1cnccc1N1CCC[C@H](N)C1` is ___
1.07

Fill in: Ki of `Cc1cncc(-c2cc3c(-c4cccc(N5CCCNCC5)n4)n[nH]c3cn2)n1` is ___
0.019

Fill in: Ki of `c1cc(-c2n[nH]c3cnc(-c4cncs4)cc23)nc(N2CCCCC2)c1` is ___
1.22

Fill in: Ki of NC1CCCN(c2cccc(-c3n[nH]c4cnc(-c5cccnc5)cc34)n2)CC1 (centres unmarked) is ___
0.038

Fill in: Ki of `CCCn1cc(-c2cc3c(-c4cccc(N5CCNCC5)n4)n[nH]c3cn2)cn1` is ___
0.039

Fill in: Ki of `N[C@H]1CCC[C@H](Nc2cccc(-c3n[nH]c4cnc(-c5cccnc5)cc34)n2)C1` is ___
0.397

Fill in: Ki of `c1ccc(-c2n[nH]c3cnc(-c4cncs4)cc23)cc1` is ___
33

Fill in: Ki of `Nc1sc(Cc2ccccc2)nc1C(=O)Nc1cnccc1N1CCC[C@H](N)C1` is ___
3.73

Fill in: Ki of `N[C@@H]1CCN(c2ccc(-c3n[nH]c4cnc(-c5cccnc5)cc34)cn2)C1` is ___
1.02

---

Serine/threonine-protein kinase pim-1 (Homo sapiens, UniProt P11309) pKi, compiled from various sources.
The quantity pKi is defined as the negative base-10 logarithm of the molar concentration.

Report pKi for `CN1CCC(c2c(NC(=O)c3nc(-c4c(F)cccc4F)sc3N)cnn2C)CC1` tested on Serine/threonine-protein kinase pim-1 (Homo sapiens, UniProt P11309).
8.12

Report pKi for `c1cncc(-c2cc3c(-c4ccncc4)n[nH]c3cn2)c1` tested on Serine/threonine-protein kinase pim-1 (Homo sapiens, UniProt P11309).
8.06

Report pKi for `NCC1CCN(c2cccc(-c3n[nH]c4cnc(-c5cccnc5)cc34)n2)CC1` tested on Serine/threonine-protein kinase pim-1 (Homo sapiens, UniProt P11309).
10.00

Report pKi for `Cn1ncc(NC(=O)c2nc(-c3c(F)cccc3F)sc2N)c1N1CCC[C@H](NCC2COC2)CC1` tested on Serine/threonine-protein kinase pim-1 (Homo sapiens, UniProt P11309).
10.12

Report pKi for `Nc1sc(-c2c(F)cccc2F)nc1C(=O)Nc1cnn(CC(F)F)c1N1CCCC[C@H](N)C1` tested on Serine/threonine-protein kinase pim-1 (Homo sapiens, UniProt P11309).
10.08

Report pKi for `Cn1cc(-c2cc3c(-c4cccc(N5C[C@@H](N)C[C@@H](F)C5)n4)n[nH]c3cn2)cn1` tested on Serine/threonine-protein kinase pim-1 (Homo sapiens, UniProt P11309).
9.91

Report pKi for `CO[C@@H]1CCN(c2c(NC(=O)c3nc(-c4c(F)cccc4F)sc3N)cnn2C2CC2)CC[C@@H]1N` tested on Serine/threonine-protein kinase pim-1 (Homo sapiens, UniProt P11309).
9.99

Report pKi for `Cn1cc(-c2cc3c(-c4cccc(N5CC[C@@H](N)C5)n4)n[nH]c3cn2)cn1` tested on Serine/threonine-protein kinase pim-1 (Homo sapiens, UniProt P11309).
9.87

---

Serine/threonine-protein kinase pim-1 (Homo sapiens, UniProt P11309) pKi, compiled from various sources.
The quantity pKi is defined as the negative base-10 logarithm of the molar concentration.

Fill in: pKi of `Cc1ccc(-c2n[nH]c3cnc(-c4cnn(C)c4)cc23)nc1N1CC(N2CCNC(=O)C2)C1` is ___
9.21

Fill in: pKi of `Nc1sc(-c2c(Cl)cccc2Cl)nc1C(=O)Nc1cnccc1N1CCC[C@H](N)C1` is ___
9.05

Fill in: pKi of NC1CCCN(c2cncc(-c3n[nH]c4cnc(-c5cccnc5)cc34)c2)CC1 (centres unmarked) is ___
8.87

Fill in: pKi of Cn1ncc(NC(=O)c2nc(-c3c(F)cncc3F)sc2N)c1N1CC[C@H](N)[C@@H](F)CC1 (racemic) is ___
9.92

Fill in: pKi of NCC1CCCCN1c1cccc(-c2n[nH]c3cnc(-c4cccnc4)cc23)n1 (centres unmarked) is ___
9.53

Fill in: pKi of `Fc1ccccc1-c1n[nH]c2cnc(-c3cnccc3OCCC3CCNCC3)cc12` is ___
9.42

Fill in: pKi of `CN[C@@H]1CCCN(c2c(NC(=O)c3nc(-c4cc(C)ccc4F)sc3N)cnn2CC(F)F)CC1` is ___
10.01

Fill in: pKi of NC1CCCN(c2ccncc2-c2cc3c(-c4ccccc4F)n[nH]c3cn2)CC1 (centres unmarked) is ___
6.59
